Some compounds, each annotated with its measured % ID/g Thalamus.
- ASSAY_INFO: Biodistribution of labeled radioligands in male Sprague-Dawley rats
- Assay type: in vivo
- RUN_PARAMETERS: 10 min post-injection; mean ± SD, n = 3
PROPERTY: % ID/g Thalamus (% ID/g)

In [3]: df
Out[3]:
                                   compound  experimental_result
0  CN(C)Cc1ccccc1Sc1ccc(CC[18F])cc1N [[^18F]AFE]                 0.58
1  CN(C)Cc1ccccc1Sc1ccc([18F])cc1N [[^18F]AFA]                 0.72
2  CN([11CH3])Cc1ccccc1Sc1ccc(CF)cc1N [[^11C]AFM]                 0.79
3  CN(C)Cc1ccccc1Sc1ccc(CCF)cc1N [[^11C]AFE]                 0.63
4  Cc1ccc(Sc2ccccc2CN(C)[11CH3])c(N)c1 [[^11C]MADAM]                 1.95
5  CN(C)Cc1ccccc1Sc1ccc(C[18F])cc1N [[^18F]AFM]                 0.72
6  CN([11CH3])Cc1ccccc1Sc1ccc(F)cc1N [[^11C]AFA]                 0.60
